Measured values drawn from patent US12410160B2 for this set.

Quick reference for pIC50 among some compounds
system: human KHK-A (Homo sapiens (Human))
Sequence (P50053 other isoform, or with tags, fused parts or gaps): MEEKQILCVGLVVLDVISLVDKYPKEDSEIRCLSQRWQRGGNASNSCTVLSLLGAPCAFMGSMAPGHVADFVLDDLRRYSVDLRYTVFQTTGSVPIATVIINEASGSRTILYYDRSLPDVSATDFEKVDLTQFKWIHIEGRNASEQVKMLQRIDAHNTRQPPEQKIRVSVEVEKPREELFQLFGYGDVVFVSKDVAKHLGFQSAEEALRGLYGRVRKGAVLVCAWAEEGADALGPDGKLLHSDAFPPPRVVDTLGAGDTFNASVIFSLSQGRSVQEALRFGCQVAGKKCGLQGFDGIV
measurementDescription: KHK Biochemical Assay (IC50), ADP-Glo, KHK-A
protocolConditions: ADP-Glo; average of at least two separate assays
Give only the number. pIC50 is defined as minus log10 of concentration in molar units.

# count of solved cases: 2
Given item C[C@H]1CCN1c1nc2c(c(-c3cccc(C(=O)N4CC(C(=O)O)C4)c3)n1)CCC2 , the value recorded as its pIC50 is 7.03

Query C[C@H]1CCN1c1nc2c(c(-c3ccc4c(c3)CCN(C)C4=O)n1)CCC2 yields pIC50 of 7.12

Then there is this compound:
pIC50 measured on CNCCNC(=O)c1cccc(-c2nc(N3CC[C@@H]3C)nc3c2CCC3)c1 = 6.89
